Molecular target: T1, full-length mouse TF with a C-terminal FLAG tag on Flp-In-CHO cells (mouse, UniProt P20352 29-294)
T1 construct: also called CHO-mTF; mouse TF-positive CHO cells
Assay: flow cytometry on CHO cells expressing mouse TF, MFI at 250 nM antibody
Each entry below lists one item and its recorded MFI at 250 nM value.
Lab note: jot the number down without any unit.

Query: If you can, please state the reported MFI at 250 nM value of 43B7 (antibody, human IgG1, V domains shown, Human IgG1; also called antibody designated 43B7) VH: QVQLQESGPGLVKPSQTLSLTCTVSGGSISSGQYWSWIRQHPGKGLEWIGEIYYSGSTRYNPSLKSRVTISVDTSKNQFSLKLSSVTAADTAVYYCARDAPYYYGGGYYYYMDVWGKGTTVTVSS VL: EIVLTQSPGTLSLSPGERATLSCRASESVDSSYLAWYQQKPGQAPRLLIYGADSRATGIPDRFSGSGSGTDFTLTISRLEPEDFAVYYCQQDGVVPYTFGGGTKVEIK .
Reply: 800000

Query: Similarly, 43B1 (antibody, human IgG1, V domains shown, Human IgG1; also called antibody designated 43B1) VH: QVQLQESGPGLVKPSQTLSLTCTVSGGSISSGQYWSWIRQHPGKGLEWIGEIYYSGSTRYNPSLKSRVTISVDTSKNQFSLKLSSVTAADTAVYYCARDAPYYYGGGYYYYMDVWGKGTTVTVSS VL: EIVLTQSPGTLSLSPGERATLSCRASESVDSSYLAWYQQKPGQAPRLLIYGASTRQTGIPDRFSGSGSGTDFTLTISRLEPEDFAVYYCQQAGVVPYTFGGGTKVEIK ?
Reply: 5.3e+06

// provenance: patent US20250361322A1
